Can you tell me efflux ratio for the items I'm about to list?
Molecular target: human MDR1 (P-gp) (Homo sapiens, UniProt P08183)
Construct: expressed in transfected cells; host or cells: MDCKII (Madin-Darby canine kidney) cells
Sequence (P08183 whole entry): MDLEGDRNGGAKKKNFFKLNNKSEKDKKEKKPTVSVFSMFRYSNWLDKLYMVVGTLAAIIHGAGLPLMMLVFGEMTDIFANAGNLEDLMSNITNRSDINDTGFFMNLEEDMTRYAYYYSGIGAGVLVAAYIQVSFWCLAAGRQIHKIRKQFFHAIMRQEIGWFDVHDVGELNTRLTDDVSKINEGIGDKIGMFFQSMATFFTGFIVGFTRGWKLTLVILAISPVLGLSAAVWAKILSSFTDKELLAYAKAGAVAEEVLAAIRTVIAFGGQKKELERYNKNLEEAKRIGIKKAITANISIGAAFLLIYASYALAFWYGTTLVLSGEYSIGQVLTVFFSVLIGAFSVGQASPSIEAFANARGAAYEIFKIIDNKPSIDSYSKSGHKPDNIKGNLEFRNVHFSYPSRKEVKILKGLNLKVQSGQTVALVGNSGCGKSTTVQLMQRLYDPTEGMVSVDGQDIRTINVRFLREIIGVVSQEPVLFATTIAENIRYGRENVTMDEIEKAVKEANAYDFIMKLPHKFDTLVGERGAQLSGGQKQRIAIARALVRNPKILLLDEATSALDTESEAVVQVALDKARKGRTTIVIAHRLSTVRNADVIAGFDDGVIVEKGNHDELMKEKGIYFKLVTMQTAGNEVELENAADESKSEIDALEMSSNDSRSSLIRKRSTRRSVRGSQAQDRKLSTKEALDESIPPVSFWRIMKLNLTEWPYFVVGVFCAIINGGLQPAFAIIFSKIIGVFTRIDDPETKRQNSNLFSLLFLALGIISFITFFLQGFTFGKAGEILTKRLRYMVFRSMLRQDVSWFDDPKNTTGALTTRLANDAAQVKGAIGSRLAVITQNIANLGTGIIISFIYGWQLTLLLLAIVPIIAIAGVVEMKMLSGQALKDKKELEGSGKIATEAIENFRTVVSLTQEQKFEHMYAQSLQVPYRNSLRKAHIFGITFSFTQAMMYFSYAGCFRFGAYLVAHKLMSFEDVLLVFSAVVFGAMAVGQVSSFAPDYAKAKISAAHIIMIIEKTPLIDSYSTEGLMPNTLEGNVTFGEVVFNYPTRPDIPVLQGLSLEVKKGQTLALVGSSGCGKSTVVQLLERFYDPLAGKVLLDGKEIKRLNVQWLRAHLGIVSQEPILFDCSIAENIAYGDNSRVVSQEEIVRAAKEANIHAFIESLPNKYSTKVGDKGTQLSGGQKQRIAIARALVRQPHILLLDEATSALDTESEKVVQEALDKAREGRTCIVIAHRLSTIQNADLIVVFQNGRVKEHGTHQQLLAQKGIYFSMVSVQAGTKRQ
Assay: MDCK assay MDR-1 (p-GP): permeability across MDCK-MDR1 monolayers
Format: in vitro ADME
Details: pH 7.4, MDCK-MDR1, Papp (b-a) divided by Papp (a-b)
Protocol: The MDCK assays provide information on the potential of a compound to pass the blood brain barrier. Permeability measurements across polarized, confluent MDCK-MDR1 cell monolayers grown on permeable filter supports are used as an in vitro absorption model: apparent permeability coefficients (PE) of the compounds across the MDCK-MDR1 cell monolayers are measured (pH 7.4, 37° C.) in apical-to-basal (AB) and basal-to-apical (BA) transport direction. […]

Per the reported human MDR1 (P-gp) (Homo sapiens, UniProt P08183) data, Cc1ccc(COC(=O)N2CCO[C@H](c3nc4cccnc4[nH]3)C2)c(F)c1 has efflux ratio of 1.4

Per the reported human MDR1 (P-gp) (Homo sapiens, UniProt P08183) data, O=C(OCc1cccc(F)c1F)N1CCO[C@H](c2nc3cccnc3[nH]2)C1 has efflux ratio of 1.2

Per the reported human MDR1 (P-gp) (Homo sapiens, UniProt P08183) data, Cc1cccc(F)c1COC(=O)N1CCO[C@H](c2nc3cccnc3[nH]2)C1 has efflux ratio of 1.6

----------
Biological target: human BCRP (Homo sapiens)
Construct: expressed in transfected cells; host or cells: MDCKII (Madin-Darby canine kidney) cells
Sequence (Q9UNQ0 whole entry): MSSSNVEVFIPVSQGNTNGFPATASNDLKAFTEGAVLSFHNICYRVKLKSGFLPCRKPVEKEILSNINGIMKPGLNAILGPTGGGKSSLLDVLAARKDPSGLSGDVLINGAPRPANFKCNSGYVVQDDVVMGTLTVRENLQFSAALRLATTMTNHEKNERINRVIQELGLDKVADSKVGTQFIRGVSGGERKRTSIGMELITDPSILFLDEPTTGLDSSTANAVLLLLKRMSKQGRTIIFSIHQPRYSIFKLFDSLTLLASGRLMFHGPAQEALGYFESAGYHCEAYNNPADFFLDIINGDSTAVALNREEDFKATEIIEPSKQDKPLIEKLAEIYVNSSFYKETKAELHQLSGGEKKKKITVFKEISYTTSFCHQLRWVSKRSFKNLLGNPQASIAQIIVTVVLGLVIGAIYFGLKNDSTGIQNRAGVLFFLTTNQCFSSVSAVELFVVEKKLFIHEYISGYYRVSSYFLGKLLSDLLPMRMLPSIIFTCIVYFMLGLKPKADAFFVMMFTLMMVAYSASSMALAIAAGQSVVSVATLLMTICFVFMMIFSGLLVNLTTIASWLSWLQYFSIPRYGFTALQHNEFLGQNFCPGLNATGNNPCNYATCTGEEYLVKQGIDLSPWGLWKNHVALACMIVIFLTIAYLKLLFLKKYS
Assay: MDCK assay BCRP: permeability across MDCK-BCRP monolayers
Format: in vitro ADME
Conditions: pH 7.4, MDCK-BCRP, Papp (b-a) divided by Papp (a-b)
Can you tell me efflux ratio for the items I'm about to list?
API note: the answer field is a bare number with no unit suffix.

Per the reported human BCRP (Homo sapiens) data, O=C(OCc1ccc(C(F)F)cc1)N1CCO[C@H](c2nc3cccnc3[nH]2)C1 has efflux ratio of 2.7

Per the reported human BCRP (Homo sapiens) data, O=C(OCc1ccc(F)cc1)N1CCO[C@H](c2nc3cccnc3[nH]2)C1 has efflux ratio of 2.9

Per the reported human BCRP (Homo sapiens) data, O=C(OCc1ccc(F)cc1F)N1CCO[C@H](c2nc3cccnc3[nH]2)C1 has efflux ratio of 1.6

Per the reported human BCRP (Homo sapiens) data, O=C(OCc1cccc(F)c1)N1CCO[C@H](c2nc3cccnc3[nH]2)C1 has efflux ratio of 2.4

Per the reported human BCRP (Homo sapiens) data, Cc1cccc(F)c1COC(=O)N1CCO[C@H](c2nc3cccnc3[nH]2)C1 has efflux ratio of 2.2

Per the reported human BCRP (Homo sapiens) data, Cc1ccc(COC(=O)N2CCO[C@H](c3nc4cccnc4[nH]3)C2)c(F)c1 has efflux ratio of 1

Per the reported human BCRP (Homo sapiens) data, O=C(OCc1ccccc1)N1CCO[C@H](c2nc3cccnc3[nH]2)C1 has efflux ratio of 2.5

Per the reported human BCRP (Homo sapiens) data, O=C(OCc1c(F)cccc1F)N1CCO[C@H](c2nc3cccnc3[nH]2)C1 has efflux ratio of 2.1

Per the reported human BCRP (Homo sapiens) data, O=C(OCc1ccc(Cl)cc1)N1CCO[C@H](c2nc3cccnc3[nH]2)C1 has efflux ratio of 1.2
